Just for reference, patent US10035801B2 is where these values come from.

# measurement_target: KDM5A (Homo sapiens, UniProt P29375)
# Construct: Full length KDM5A enzyme was expressed and purified inhouse; made in house
# Sequence (P29375 whole entry): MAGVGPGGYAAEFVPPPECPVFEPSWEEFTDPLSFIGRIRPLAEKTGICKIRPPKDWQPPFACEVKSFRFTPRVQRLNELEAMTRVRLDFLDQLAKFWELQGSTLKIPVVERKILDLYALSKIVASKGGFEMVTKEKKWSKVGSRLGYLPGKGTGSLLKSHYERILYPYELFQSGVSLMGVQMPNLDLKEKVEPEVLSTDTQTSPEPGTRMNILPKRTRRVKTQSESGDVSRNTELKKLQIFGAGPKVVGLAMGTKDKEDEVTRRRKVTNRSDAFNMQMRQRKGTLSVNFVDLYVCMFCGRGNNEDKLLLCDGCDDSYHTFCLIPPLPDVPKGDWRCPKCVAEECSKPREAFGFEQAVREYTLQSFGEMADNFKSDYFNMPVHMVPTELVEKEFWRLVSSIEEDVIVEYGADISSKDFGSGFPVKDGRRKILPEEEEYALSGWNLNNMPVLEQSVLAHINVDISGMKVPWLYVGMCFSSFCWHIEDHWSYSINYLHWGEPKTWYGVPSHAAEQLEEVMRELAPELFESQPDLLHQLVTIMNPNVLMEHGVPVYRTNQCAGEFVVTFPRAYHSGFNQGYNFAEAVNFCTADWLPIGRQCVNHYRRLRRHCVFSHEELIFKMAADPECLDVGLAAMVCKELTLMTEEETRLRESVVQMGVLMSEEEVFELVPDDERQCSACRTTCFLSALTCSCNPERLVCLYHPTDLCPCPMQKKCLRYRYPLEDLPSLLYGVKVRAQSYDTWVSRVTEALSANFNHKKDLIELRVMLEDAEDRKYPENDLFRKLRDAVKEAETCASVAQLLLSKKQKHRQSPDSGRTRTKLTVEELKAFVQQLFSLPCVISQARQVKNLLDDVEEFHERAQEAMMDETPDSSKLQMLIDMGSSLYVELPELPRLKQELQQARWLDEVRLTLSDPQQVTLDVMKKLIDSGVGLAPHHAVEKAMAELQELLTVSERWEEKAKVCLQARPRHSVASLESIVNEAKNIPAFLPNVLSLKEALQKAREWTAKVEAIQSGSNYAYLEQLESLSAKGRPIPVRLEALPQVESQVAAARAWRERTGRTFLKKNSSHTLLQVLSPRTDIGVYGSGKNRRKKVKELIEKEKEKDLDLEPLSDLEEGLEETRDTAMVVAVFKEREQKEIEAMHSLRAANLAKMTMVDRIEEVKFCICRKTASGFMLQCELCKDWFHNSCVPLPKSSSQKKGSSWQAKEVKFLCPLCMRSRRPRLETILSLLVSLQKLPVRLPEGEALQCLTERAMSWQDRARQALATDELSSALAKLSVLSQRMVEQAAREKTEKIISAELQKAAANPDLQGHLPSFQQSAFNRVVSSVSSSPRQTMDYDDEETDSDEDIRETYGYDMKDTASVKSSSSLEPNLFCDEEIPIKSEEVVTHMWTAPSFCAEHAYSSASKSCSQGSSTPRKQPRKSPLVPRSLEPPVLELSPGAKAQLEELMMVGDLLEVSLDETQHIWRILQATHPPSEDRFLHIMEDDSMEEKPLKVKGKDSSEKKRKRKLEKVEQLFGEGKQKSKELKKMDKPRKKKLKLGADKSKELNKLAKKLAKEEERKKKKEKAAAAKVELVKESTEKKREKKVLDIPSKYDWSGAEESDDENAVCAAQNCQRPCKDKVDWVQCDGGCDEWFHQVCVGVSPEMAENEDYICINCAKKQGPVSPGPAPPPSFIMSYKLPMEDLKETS
# experimental_protocol: KDM5 enzyme assay, KDM5A HTRF (Example 463)
# Format: biochemical
# condition_label: compounds of Examples 1-432; read-out: Example 463 Assay KDM5A HTRF IC50
attribute_measured: IC50 (nM)

Would you please look over these solved cases?
smi: CC(C)c1c(-c2cc(C(=O)N(C)C)n(C(C)C)c2)[nH]c2c(C#N)cnn2c1=O
measurement_target: KDM5A (Homo sapiens, UniProt P29375)
meas_value: 31

smi: CC(C)c1c(-c2cccc(S(C)(=O)=O)c2)[nH]c2c(C#N)cnn2c1=O
measurement_target: KDM5A (Homo sapiens, UniProt P29375)
meas_value: 17

smi: CC(C)c1c(-c2cnn(Cc3ccccc3)c2)[nH]c2c(C#N)cnn2c1=O
measurement_target: KDM5A (Homo sapiens, UniProt P29375)
meas_value: 10

smi: CC(C)c1c(-c2cnn(-c3cccc(F)c3)c2)[nH]c2c(C#N)cnn2c1=O
measurement_target: KDM5A (Homo sapiens, UniProt P29375)
meas_value: 20

smi: CCc1c(C)n(CC)c2c(C#N)cnn2c1=O
measurement_target: KDM5A (Homo sapiens, UniProt P29375)
meas_value: 760

smi: CC(C)c1c(-c2cnn(C(=O)c3ccccc3)c2)[nH]c2c(C#N)cnn2c1=O
measurement_target: KDM5A (Homo sapiens, UniProt P29375)
meas_value: 11

[I] CC(C)c1c(-c2cnn(-c3ccccc3)c2)[nH]c2c(C#N)cnn2c1=O
[II] CC(C)c1c(C2=CCOC2)n(C)c2c(C#N)cnn2c1=O
Lookup: // pick min by IC50: I , II # reply format: chosen label
Found: I
(I: 6 nM, II: 210 nM)

* * *

# measurement_target: KDM5A (Homo sapiens)
# Construct: Full length KDM5A enzyme was expressed and purified inhouse; made in house
# experimental_protocol: KDM5 enzyme assay, KDM5A HTRF (Example 463)
# Assay type: biochemical
# condition_label: compounds of Examples 1-432; read-out: Example 463 Assay KDM5A HTRF IC50
pIC50: −log10 of the molar value.
attribute_measured: pIC50

[1] CNC(=O)c1ccc(-c2[nH]c3c(C#N)cnn3c(=O)c2C(C)C)cc1
[2] Cn1c(-c2ccccc2)c(Br)c(=O)n2ncc(C#N)c12
[3] CC(C)c1c(-c2cnn(C3CCS(=O)(=O)CC3)c2)[nH]c2c(C#N)cnn2c1=O
[4] CC(C)c1c(-c2ccc(Br)o2)[nH]c2c(C#N)cnn2c1=O
Lookup: Task for the reader: place the compounds above in descending order according to recorded pIC50. Your task in answering is to list the labels in the requested order.
Found: 4, 3, 1, 2
(4: 7.89, 3: 7.68, 1: 7.12, 2: 5.10)

[A] N#Cc1cnn2c(=O)c(Cl)c(-c3ccccc3)[nH]c12
[B] CCn1cc(-c2c(C(C)C)c(=O)n3ncc(C#N)c3n2C)cn1
[C] CC(C)c1c(-c2ccn(-c3ccccc3)n2)[nH]c2c(C#N)cnn2c1=O
Lookup: Ordering criterion: pIC50; begin with the maximum. Please list each label once, in the requested order.
Found: C, A, B

* * *

# measurement_target: KDM5A (Homo sapiens, UniProt P29375)
# Construct: Full length KDM5A enzyme was expressed and purified inhouse; made in house
# experimental_protocol: KDM5 enzyme assay, KDM5A HTRF (Example 463)
# Format: biochemical
# condition_label: compounds of Examples 1-432; read-out: Example 463 Assay KDM5A HTRF IC50
pIC50: −log10 of the molar value.
attribute_measured: pIC50

[A] CC(C)c1c(-c2ccc3c(c2)CCC3=O)[nH]c2c(C#N)cnn2c1=O
[B] CC(C)c1c(-c2cccc(F)c2)n(C)c2c(C#N)cnn2c1=O
[C] N#Cc1cnn2c(=O)c(C3CCC3)c(-c3cn[nH]c3)[nH]c12
[D] CCc1c(-c2cnn(Cc3ccccc3)c2)[nH]c2c(C#N)cnn2c1=O
Lookup: Please put the entries in order of rising pIC50. Labels, requested order.
Found: B, C, A, D

[P] CC(C)c1c(-c2cccc(COc3ccccc3)c2)[nH]c2c(C#N)cnn2c1=O
[Q] CC(C)c1c(-c2cnn(C3CCCC3)c2)[nH]c2c(C#N)cnn2c1=O
[R] CC(C)NC(=O)c1ccc(-c2[nH]c3c(C#N)cnn3c(=O)c2C(C)C)cc1
[S] CC(C)c1c(-c2ccco2)n(C)c2c(C#N)cnn2c1=O
Lookup: Please produce an ascending ranking of these compounds based on pIC50. Please, when replying, give the labels in the order that was requested.
Found: R, S, P, Q
(R: 6.85, S: 7.37, P: 7.60, Q: 7.92)

[P] CCc1c(-c2cccc(Nc3ccc(F)cc3)c2)[nH]c2c(C#N)cnn2c1=O
[Q] CC(C)c1c(-c2ccn(S(C)(=O)=O)c2)[nH]c2c(C#N)cnn2c1=O
Lookup: Please let me know which one, P or Q , has a lower measured pIC50 value. Please reply using the label of the selected record.
Found: P
(P: 7.72, Q: 7.92)
